The reported measurements were obtained from patent US20240368131A1.

target: human NLRP3 (Homo sapiens); test: Human Whole Blood (hWB) NLRP3 Assay (IL-1β MSD); format: cell-based; conditions: LPS 1 μg/ml 4.5 h, ATP 30 min, class symbols
Sequence (Q96P20 whole entry): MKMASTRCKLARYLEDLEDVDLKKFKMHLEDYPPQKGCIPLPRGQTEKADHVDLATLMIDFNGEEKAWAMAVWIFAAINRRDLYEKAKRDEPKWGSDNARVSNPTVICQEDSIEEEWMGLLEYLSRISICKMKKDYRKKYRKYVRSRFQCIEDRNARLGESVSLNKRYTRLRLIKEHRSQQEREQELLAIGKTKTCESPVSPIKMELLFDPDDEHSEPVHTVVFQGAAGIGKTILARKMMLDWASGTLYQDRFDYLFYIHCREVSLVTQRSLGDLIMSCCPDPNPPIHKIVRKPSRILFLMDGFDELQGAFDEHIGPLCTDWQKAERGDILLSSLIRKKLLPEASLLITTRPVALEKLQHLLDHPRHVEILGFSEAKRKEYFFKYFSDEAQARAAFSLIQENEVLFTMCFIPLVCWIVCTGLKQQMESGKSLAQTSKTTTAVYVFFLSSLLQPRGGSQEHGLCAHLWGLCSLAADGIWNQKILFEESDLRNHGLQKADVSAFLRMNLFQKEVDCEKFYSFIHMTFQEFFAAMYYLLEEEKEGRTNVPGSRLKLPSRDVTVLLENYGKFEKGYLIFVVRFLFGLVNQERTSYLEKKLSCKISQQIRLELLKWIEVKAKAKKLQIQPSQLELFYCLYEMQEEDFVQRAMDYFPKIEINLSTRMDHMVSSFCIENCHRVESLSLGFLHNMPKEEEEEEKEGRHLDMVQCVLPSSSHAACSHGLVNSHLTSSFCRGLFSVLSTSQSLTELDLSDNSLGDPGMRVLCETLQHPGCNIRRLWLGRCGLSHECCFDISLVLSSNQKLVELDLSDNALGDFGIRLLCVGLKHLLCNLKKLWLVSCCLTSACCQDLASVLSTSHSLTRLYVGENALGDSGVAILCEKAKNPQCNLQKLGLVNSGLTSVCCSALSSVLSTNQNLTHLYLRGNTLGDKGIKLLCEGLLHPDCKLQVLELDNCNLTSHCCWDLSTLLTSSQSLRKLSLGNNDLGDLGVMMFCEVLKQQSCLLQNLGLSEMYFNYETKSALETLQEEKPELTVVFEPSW
pIC50: −log10 of the molar value.
test_readout: pIC50

compound: C[C@@H](CC(=O)O)[C@@H](C)NC(=O)CN1C(=O)C(C)(C)c2c1ccc(C1CC1)c2F (single isomer, unassigned) [Compound 58A*]
pIC50: 6.00 to 6.30

Query string: I'd like to know its pIC50. The compound in question is C[C@H](CC(=O)O)[C@@H](C)NC(=O)CN1C(=O)C(C)(C)c2c(F)c(C(F)(F)F)cc(F)c21 (single isomer, unassigned) [67D*]
Result string: 6.30 to 6.52

Query string: Using the record for C[C@@H](CNC(=O)CN1C(=O)C(C)(C)c2c(F)c(C3CC3)cc(F)c21)CC(=O)O [Compound 61A] , report its pIC50.
Result string: 6.30 to 6.52

Query string: Could you tell me which pIC50 is on file for `CC(C)(CCC(=O)O)NC(=O)CN1C(=O)C(C)(C)c2cc(Br)cc(O)c21` ?
Result string: 6.00 to 6.30

Query string: I'd like to know its pIC50. The compound in question is `CC1(C)C(=O)N(CC(=O)NCC2(CC(=O)O)CC2)c2c(O)cc(Br)cc21`
Result string: < 6.00

Query string: Consider the compound shown here: `CC1(C)C(=O)N(CC(=O)NCCCC(=O)O)c2c(F)cc(C3CC3)c(F)c21` What is its recorded pIC50?
Result string: 6.30 to 6.52

Query string: Query: pIC50; subject: C[C@H](NC(=O)CN1C(=O)C(C)(C)c2c(F)c(C(F)(F)F)cc(F)c21)[C@@H](C)CC(=O)O (single isomer, unassigned) [67C*]
Result string: < 6.00

----------
molecular target: human NLRP3 (Homo sapiens); assay: Human PBMC NLRP3 Assay (IL-1β release); type: cell-based; parameters: Human PBMCs (Normal): iXCells Cat #10HU-003; host or cells: human PBMCs (normal donors), LPS-primed, nigericin-stimulated; conditions: human PBMCs, LPS priming 4 h, nigericin stimulation 1 h; class symbols
pIC50: −log10 of the molar value.
test_readout: pIC50

Solved cases below.
compound: CC(C)(CCC(=O)O)NC(=O)CN1C(=O)C(C)(C)c2cc(Br)cc(O)c21
val: > 6.52

compound: CC1(C)C(=O)N(C2(C(=O)NCCCC(=O)O)CC2)c2ccc(Br)cc21
val: < 5.00

compound: CC1(C)C(=O)N(CC(=O)NCCCc2nnn[nH]2)c2c(F)cc(C3CC3)c(F)c21
val: > 6.52

compound: CC1(C)C(=O)N(CC(=O)NCCCC(=O)O)c2c(F)cc(C3CC3)cc21
val: > 6.52

compound: CC(C)(CCC(=O)O)NC(=O)CN1C(=O)C(C)(C)c2cc(C(F)(F)F)ccc21
val: 6.00 to 6.30

Query string: Value lookup for pIC50; key = `CN(CCCC(=O)O)C(=O)CN1C(=O)C(C)(C)c2cc(Br)cc(O)c21`
Result string: > 6.52

Query string: Need pIC50, item CC1(C)C(=O)N(CC(=O)NC[C@H](F)CC(=O)O)c2ccc(C3CC3)c(F)c21 [Compound 63A]
Result string: > 6.52

Query string: For the compound shown here, C[C@H](CCC(=O)O)NC(=O)CN1C(=O)C(C)(C)c2cc(Br)cc(O)c21 [Compound 41A] , give the reported pIC50.
Result string: > 6.52

Query string: For the compound shown here, CC1(C)C(=O)N(CC(=O)NC[C@H](F)CC(=O)O)c2c(F)cc(C(F)(F)F)c(F)c21 [Compound 64A] , give the reported pIC50.
Result string: > 6.52

Query string: Need pIC50 of `CC(C)(CCC(=O)O)NC(=O)CN1C(=O)C(C)(C)c2cc(C3CC3)ccc21` , thanks.
Result string: 6.00 to 6.30

Query string: Bench note: what pIC50 did `CC1(C)C(=O)N(CC(=O)NCCCC(=O)O)c2c(F)cc(Br)cc21` show?
Result string: > 6.52
